// self-aminoacylation lookup, one value per entry
system: biotinyl-Met-oxazolone; test: self-aminoacylation, catalytic enhancement (BMO) (fold over background); higher = more active; k-Seq, kA / k0A0; sequences stand for … in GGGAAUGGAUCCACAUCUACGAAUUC…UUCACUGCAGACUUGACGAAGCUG
Variants at the floor of the assay were thinned out.
recordedEndpoint: self-aminoacylation

- residues: "AUUCACCUCGGUCAUCGGGCG [Fam2.2 aminoacylation ribozyme variant]"
  recordedEndpoint: "self-aminoacylation"
  recordedMeasurement: 3.37
- residues: "CCACACAUCAAGAAAUCGGUC [Fam1B.1 aminoacylation ribozyme variant]"
  recordedEndpoint: "self-aminoacylation"
  recordedMeasurement: 0.61
- residues: "AUUACAGUGGUCAUCGAGUGA [Fam2.1 aminoacylation ribozyme variant]"
  recordedEndpoint: "self-aminoacylation"
  recordedMeasurement: 1.87
- residues: "AGUACCGUGGUCAUCGAGUGA [Fam2.1 aminoacylation ribozyme variant]"
  recordedEndpoint: "self-aminoacylation"
  recordedMeasurement: 5.19
- residues: "AACUUUGAUAAUAGUCGCAAG [Fam3.1 aminoacylation ribozyme variant]"
  recordedEndpoint: "self-aminoacylation"
  recordedMeasurement: 1.66
